# system-under-test: DNA-PK (Homo sapiens (Human), UniProt P78527)
Let's look at some molecules and their measured IC50.
Supply the numeric figure in µM, leaving out any unit text.

Would you please look over these solved cases?
// molecule CC(C)(O)c1nc(-c2cccc3[nH]ccc23)nc2c1OC[C@@H]1COCCN21 [Example 44] , assay DNA-PK (Homo sapiens (Human), UniProt P78527), IC50 value: 3.06

// molecule CS(=O)(=O)C1(c2nc(-c3ccc(F)c4[nH]ccc34)nc3c2OC[C@@H]2COCCN32)CC1 [Example 110] , assay DNA-PK (Homo sapiens (Human), UniProt P78527), IC50 value: 10

// molecule Cc1cc2c(-c3nc4c(c(C5(S(C)(=O)=O)CC5)n3)OC[C@@H]3COCCN43)cccc2[nH]1 [Example 109] , assay DNA-PK (Homo sapiens (Human), UniProt P78527), IC50 value: 10

// molecule Cc1cc2c(-c3nc4c(c(C5(S(C)(=O)=O)CCC5)n3)OC[C@@H]3COCCN43)cccc2[nH]1 [Example 93] , assay DNA-PK (Homo sapiens (Human), UniProt P78527), IC50 value: 10

// molecule CS(=O)(=O)C1(c2nc(-c3cc(F)cc4[nH]ccc34)nc3c2OC[C@@H]2COCCN32)CCC1 [Example 77] , assay DNA-PK (Homo sapiens (Human), UniProt P78527), IC50 value: 10

// molecule CNc1nc2ccccc2n1-c1nc2c(c(C3(S(C)(=O)=O)CCC3)n1)OC[C@@H]1COCCN21 [Example 92] , assay DNA-PK (Homo sapiens (Human), UniProt P78527), IC50 value: 6.15

Okay, now this molecule:
// molecule CNc1nc2ccc(C#N)cc2n1-c1nc2c(c(C(C)(C)S(C)(=O)=O)n1)OC[C@@H]1COCCN21 [Example 114] , assay DNA-PK (Homo sapiens (Human), UniProt P78527), IC50 value: 10
